Biological target: GDP-bound KRAS protein (aa 1-169), G12D and C118A; SOS-mediated nucleotide exchange (Homo sapiens (Human), UniProt P01116, C118A/G12D)
Sequence (P01116 other isoform, or with tags, fused parts or gaps G12D/C118A): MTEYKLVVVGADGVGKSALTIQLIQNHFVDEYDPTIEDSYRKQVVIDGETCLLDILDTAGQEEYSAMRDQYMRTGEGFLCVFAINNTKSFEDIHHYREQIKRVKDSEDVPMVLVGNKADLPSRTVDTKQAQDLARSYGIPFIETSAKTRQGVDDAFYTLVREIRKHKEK
Assay: KRAS G12D Coupled Nucleotide Exchange Assay
Format: biochemical
Conditions: 2 h compound pre-incubation, GTP, cRAF AlphaScreen
readout: IC50 (nM)

compound | IC50 [nM]
N#Cc1c(N)sc2c(F)ccc(-c3c(Cl)cc4c(N5CCCC[C@H](O)C5)nc(OC[C@@]56CCCN5C[C@H](F)C6)nc4c3F)c12 | 4
C[C@@H]1CCCN1c1nc(OC[C@@]23CCCN2C[C@H](F)C3)nc2c(F)c(-c3ccc(F)c4sc(N)c(C#N)c34)c(Cl)cc12 | 16
N#Cc1c(N)sc2c(F)ccc(-c3c(Cl)cc4c(N5CC6COC(C6)C5)nc(OC[C@@]56CCCN5C[C@H](F)C6)nc4c3F)c12 (stereo partly drawn) | 3
N#Cc1c(N)sc2c(F)ccc(-c3c(Cl)cc4c(N5CCCC6(CC(=O)C6)C5)nc(OC[C@@]56CCCN5C[C@H](F)C6)nc4c3F)c12 | 26
CC1(O)COCCN(c2nc(OC[C@@]34CCCN3C[C@H](F)C4)nc3c(F)c(-c4ccc(F)c5sc(N)c(C#N)c45)c(O)cc23)C1 (stereo partly drawn) | 3
C[C@@]1(O)CCCN(c2nc(OC[C@@]34CCCN3C[C@H](F)C4)nc3c(F)c(-c4ccc(F)c5sc(N)c(C#N)c45)ncc23)C1 | 30
N#Cc1c(N)sc2c(F)ccc(-c3c(Cl)cc4c(N5CCCCC(S(N)(=O)=O)C5)nc(OC[C@@]56CCCN5C[C@H](F)C6)nc4c3F)c12 (stereo partly drawn) | 4
N#Cc1c(N)sc2c(F)ccc(-c3c(Cl)cc4c(N5CCOCC(O)(C(F)F)C5)nc(OC[C@@]56CCCN5C[C@H](F)C6)nc4c3F)c12 (single isomer, unassigned) | 3
N#Cc1c(N)sc2c(F)ccc(-c3c(Cl)cc4c(N5CCCC6(CCO6)C5)nc(OC[C@@]56CCCN5C[C@H](F)C6)nc4c3F)c12 (stereo partly drawn) | 26
N#Cc1c(N)sc2c(F)ccc(-c3c(Cl)cc4c(N5CCCC[C@@H](C#N)C5)nc(OC[C@@]56CCCN5C[C@H](F)C6)nc4c3F)c12 | 91

A. N#Cc1c(N)sc2c(F)ccc(-c3c(Cl)cc4c(N5CCOCC(F)C5)nc(OC[C@@]56CCCN5C[C@H](F)C6)nc4c3F)c12 (single isomer, unassigned) [Example 59]
B. CC1(C(N)=O)CCCN(c2nc(OC[C@@]34CCCN3C[C@H](F)C4)nc3c(F)c(-c4ccc(F)c5sc(N)c(C#N)c45)c(Cl)cc23)C1 (stereo partly drawn)
Query: Which value of IC50 is numerically greater: that of A or that of B ? Let me know the label of the one you choose.
Response: B

====

Biological target: His-tagged KRAS G12D protein (Homo sapiens (Human), UniProt P01116, G12D)
Sequence (P01116-2 other isoform, or with tags, fused parts or gaps G12D): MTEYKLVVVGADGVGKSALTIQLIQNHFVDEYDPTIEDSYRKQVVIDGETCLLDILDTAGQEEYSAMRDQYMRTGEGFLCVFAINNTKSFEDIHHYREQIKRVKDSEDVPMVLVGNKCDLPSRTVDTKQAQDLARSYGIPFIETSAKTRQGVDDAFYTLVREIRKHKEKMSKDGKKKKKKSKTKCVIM
Experiment: KRAS G12D TR-FRET Assay
Type: binding
Settings: biotinylated KRPep-2d, 10 μM GDP
Experimental: Compounds of interest were prepared in a dose-response titration in DMSO, and 80 nL were added via Labcyte Echo to each well of a 384-well plate (Perkin Elmer 6008280). […] Plates were read using PerkinElmer En Vision (ex: 320 nm, em1: 665 nm, em2: 615 nm) and em1/em2 data was used to generate curve fits using a 4-parameter logistic model to calculate IC50 values.
pIC50: −log10 of the molar value.
readout: pIC50

compound | test_target | pIC50
CC1(C(N)=O)CCCN(c2nc(OC[C@@]34CCCN3C[C@H](F)C4)nc3c(F)c(-c4ccc(F)c5sc(N)c(C#N)c45)c(Cl)cc23)C1 (stereo partly drawn) [Example 11] | His-tagged KRAS G12D protein (Homo sapiens (Human), UniProt P01116, G12D) | 8.15

I. CS(=O)(=O)N1CC2(CCCN(c3nc(OC[C@@]45CCCN4C[C@H](F)C5)nc4c(F)c(-c5ccc(F)c6sc(N)c(C#N)c56)c(Cl)cc34)C2)C1 [Example 14]
II. C[C@]1(O)CCCN(c2nc(OC[C@@]34CCCN3C[C@H](F)C4)nc3c(F)c(-c4ccc(F)c5sc(N)c(C#N)c45)c(Cl)cc23)C1 [Example 39]
Query: I'm curious whether I or II has the smaller pIC50 number. Which is it? Answer format: the label of the selected item.
Response: II
(II: 8.00, I: 8.40)
